system: SK-OV-3 ovarian; assay: NCI-60 one-dose screen, 48 h (100 = growth as untreated, 0 = no growth, -100 = all killed); details: 10 µM unless noted
This is part of a sample that, as a whole, favours compounds with a hit. Of some 83,000 tested, about 20% had one in any assay.
observable: growth (%)

> print(dat)
                                   compound              tgt  observable  unit.descriptor  value.measured
1  Cc1ccc2oc(=O)cc(-c3cc(-c4cc5ccccc5oc4=O)nc(N)c3C#N)c2c1  SK-OV-3 ovarian      growth                %            78.8
2   CC1(C=O)NC(=O)NC1=O (centres undefined)  SK-OV-3 ovarian      growth                %            81.9
3  NC(=O)N1N=C(c2ccc(Cl)cc2)CC1c1cn(-c2ccccc2)nc1-c1ccc(Cl)cc1 (centres undefined)  SK-OV-3 ovarian      growth                %            50.9
4  Fc1ccc(NCc2cn(-c3ccccc3)nc2-c2ccc(OCc3ccccc3)cc2)cc1Cl  SK-OV-3 ovarian      growth                %            82.3
